measurement.target: "5-HT1 -like" receptor (dog isolated saphenous vein strip) (Canis lupus familiaris)
Construct: contracting the isolated dog saphenous vein strip
assay.notes: contraction of dog isolated saphenous vein strip (5-HT1-like receptor agonist activity)
stated.conditions: in vitro, read-out: EC50 (concentration of compound which causes 50% of the maximum contraction effected by it)
measured.endpoint: EC50
Enter the number, and then the unit.

compound	observed.measurement
CC(=O)CCN1CCC[C@@H]1Cc1c[nH]c2ccc(CCS(=O)(=O)c3ccccc3)cc12	440 nM
CCS(=O)(=O)CCc1ccc2[nH]cc(C[C@H]3CCCN3C(C)c3ccccc3)c2c1 (mixture of isomers)	71 nM
CCS(=O)(=O)CCc1ccc2[nH]cc(C[C@H]3CCCN3CC[S+]([O-])c3ccccc3)c2c1 (single isomer, unassigned) [Example 37A]	290 nM
NS(=O)(=O)C=Cc1ccc2[nH]cc(C[C@H]3CCCN3CC3CC3)c2c1	180 nM
CCS(=O)(=O)CCc1ccc2[nH]cc(C[C@H]3CCCN3CC=C(C)C)c2c1	190 nM

Working through the 3 compounds below one at a time, give EC50 for each.
1. CCS(=O)(=O)CCc1ccc2[nH]cc(C[C@H]3CCCN3C3CCCC3)c2c1
2. CCS(=O)(=O)CCc1ccc2[nH]cc(C[C@H]3CCCN3CCC(C)=O)c2c1
3. CCS(=O)(=O)CCc1ccc2[nH]cc(C[C@H]3CCCN3Cc3ccccn3)c2c1

["82 nM", "31 nM", "430 nM"]

Each compound below has a reported value. Please supply its EC50.
1. CCS(=O)(=O)CCc1ccc2[nH]cc(C[C@H]3CCCN3CCC(N)=O)c2c1
2. CCS(=O)(=O)CCc1ccc2[nH]cc(C[C@H]3CCCN3CCc3ccccn3)c2c1
3. CCS(=O)(=O)CCc1ccc2[nH]cc(C[C@H]3CCCN3CCOC)c2c1
4. CCS(=O)(=O)CCc1ccc2[nH]cc(C[C@H]3CCCN3CCO)c2c1
5. O=S(=O)(CCc1ccc2[nH]cc(C[C@H]3CCCN3C3CCCC3)c2c1)c1ccccc1

1: 62 nM; 2: 290 nM; 3: 120 nM; 4: 160 nM; 5: 560 nM

###

measurement.target: "5-HT1 -like" receptor (dog isolated saphenous vein strip) (Canis lupus familiaris, UniProt P79250)
Construct: contracting the isolated dog saphenous vein strip; from tissue; host or cells: dog isolated saphenous vein strip
Sequence (P79250 whole entry): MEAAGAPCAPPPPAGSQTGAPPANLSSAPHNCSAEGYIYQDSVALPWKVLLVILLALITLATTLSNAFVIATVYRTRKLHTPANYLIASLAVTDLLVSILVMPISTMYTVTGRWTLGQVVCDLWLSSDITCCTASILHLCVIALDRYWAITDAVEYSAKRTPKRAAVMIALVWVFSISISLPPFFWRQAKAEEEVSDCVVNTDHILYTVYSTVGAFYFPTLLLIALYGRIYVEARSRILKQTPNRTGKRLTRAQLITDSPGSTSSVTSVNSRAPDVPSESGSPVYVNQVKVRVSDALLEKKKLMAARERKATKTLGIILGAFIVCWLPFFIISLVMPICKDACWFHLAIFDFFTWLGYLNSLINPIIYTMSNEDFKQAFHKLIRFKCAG
assay.notes: contraction of dog isolated saphenous vein strip (5-HT1-like receptor agonist activity)
Type: cell-based
stated.conditions: in vitro, ratio to 5-HT
Protocol: The in vitro evaluation of the "5-HT1 -like" receptor agonist activity of the compounds of the invention is carried out by testing the extent to which they mimic sumatriptan in contracting the isolated dog saphenous vein strip (P. P. A. Humphrey et al., Brit. J. Pharmacol., 1988, 94, 1123). The following Table illustrates the in vitro activities for a range of the Compounds of the invention on dog isolated saphenous vein strip. […]
Please go through the items and note down their RELATIVE POTENCY EC50 (compound)/EC50 (5-HT).

compound	observed.measurement
CCS(=O)(=O)CCc1ccc2[nH]cc(C[C@H]3CCCN3CCC(N)=O)c2c1	1.4
O=S(=O)(CCc1ccc2[nH]cc(C[C@H]3CCCN3C3CCCC3)c2c1)c1ccccc1	4.9
CCS(=O)(=O)CCc1ccc2[nH]cc(C[C@H]3CCCN3CC[S+]([O-])c3ccccc3)c2c1 (single isomer, unassigned) [Example 37A]	4.6
NS(=O)(=O)C=Cc1ccc2[nH]cc(C[C@H]3CCCN3CC3CC3)c2c1	2.7
CCS(=O)(=O)CCc1ccc2[nH]cc(C[C@H]3CCCN3C3CCCC3)c2c1	1.8

Batch of 3 compounds: report RELATIVE POTENCY EC50 (compound)/EC50 (5-HT) for each.
1. CCS(=O)(=O)CCc1ccc2[nH]cc(C[C@H]3CCCN3CCC(C)=O)c2c1
2. CCS(=O)(=O)CCc1ccc2[nH]cc(C[C@H]3CCCN3Cc3ccccn3)c2c1
3. CC(=O)CCN1CCC[C@@H]1Cc1c[nH]c2ccc(CCS(=O)(=O)c3ccccc3)cc12

[1.9, 9.4, 3.4]
